Measured CC50 at 72 h, listed per entry for reference.
EXPERIMENT DESCRIPTION: Cytotoxicity against human HepG2 cells assessed as reduction in cell proliferation measured after 72 hrs by crystal violet staining based analysis
Assay type: toxicity
Write the answer as a number in µM, unit excluded.

[[record]]
molecular_string = "NCCCCc1cn(-c2ccc(-c3nc(-c4ccc(Oc5ccccc5)cc4)c(-c4ccccc4)s3)c(OCCN3CCNC3=O)c2)nn1"
measurement_name = "CC50 at 72 h"
reported_measurement = 15.9


Alright, here's another compound for you.
Qu. Which CC50 at 72 h value is on record for "CCCCCCCCCCCCCCOc1ccc(C[N+](C)(C)C2CCCC2)cc1OC" ?
Ans. 21.3

FYI, the data here is from ChEMBL document CHEMBL5346864.
